tested on: FRDA fibroblasts; experiment: Rescue of BSO-stressed human dermal fibroblasts from Friedreich's Ataxia patients (Calcein AM viability); format: cell-based; conditions: Homo sapiens; compounds of the invention; FRDA fibroblasts (GM04078), 1 mM BSO, 48 h; tested three times; read-out: Ec50 Average
// classify: if (EC50 < 6 nM) Criterion met else Criterion not met

QUERY: Please check: EC50 for COCCN(C)C(=O)c1ccc2nc3c(C)c(C)c(=O)c(C)c-3oc2c1 [Compound 7] , strictly under 6 nM or not?
RESULT: Criterion met

QUERY: Then what about the compound COC(=O)c1ccc2nc3c(C)c(C)c(=O)c(C)c-3oc2c1 [Compound 21] ?
RESULT: Criterion not met

QUERY: Entry to check: Cc1c2nc3ccc(C(F)(F)F)cc3oc-2c(C)c(=O)c1C [Compound 17]
RESULT: Criterion not met

QUERY: Lookup Cc1c2nc3ccc(C(=O)NCCCO)cc3oc-2c(C)c(=O)c1C [Compound 10]
RESULT: Criterion met

---

system: FRDA fibroblasts; assay: Rescue of BSO-stressed human dermal fibroblasts from Friedreich's Ataxia patients (Calcein AM viability); format: cell-based; settings: control compounds; FRDA fibroblasts (GM04078), 1 mM BSO, 48 h; second of three experiments; read-out: EC50 Value 2
Endpoint Name: EC50 (nM)
Answer with a number only, understood to be in nM.

QUERY: For Cc1c(C)c2c(c(C)c1O)CC[C@@](C)(CCC[C@H](C)CCC[C@H](C)CCCC(C)C)O2 [alpha-tocopherol, reference compound] , what is its reported EC50?
RESULT: 150

---

Assign pEC50 to each entry below.
tested on: FRDA fibroblasts; test: Rescue of BSO-stressed human dermal fibroblasts from Friedreich's Ataxia patients (Calcein AM viability); format: cell-based; conditions: Homo sapiens; compounds of the invention; FRDA fibroblasts (GM04078), 1 mM BSO, 48 h; tested three times; read-out: Ec50 Average
Quick note: pEC50 values are minus log10 of concentrations in mol/L.

QUERY: // pEC50 lookup, key: `O=c1ccc2nc3ccc(O[C@@H]4O[C@H](CO)[C@H](O)[C@H](O)[C@H]4O)cc3oc-2c1`
RESULT: 7.80

QUERY: Moving on to `Cc1c2nc3ccc(C(=O)NCCN4CCOCC4)cc3oc-2c(C)c(=O)c1C`
RESULT: 8.52

QUERY: // same read-out, input: `Cc1ccc2nc3c(C)c(C)c(=O)c(C)c-3oc2c1C`
RESULT: 8.40

QUERY: Similarly, `Cc1c2nc3cc(C(F)(F)F)ccc3oc-2c(C)c(=O)c1C` ?
RESULT: 7.27

QUERY: Follow-up entry: `Cc1cc(C)c2nc3c(C)c(C)c(=O)c(C)c-3oc2c1`
RESULT: 7.59

QUERY: Subsequent entry: `COc1c2nc3ccc(C)cc3oc-2c(C)c(=O)c1OC`
RESULT: 8.70

QUERY: Cool, now `Cc1c2nc3ccc(C(=O)NCCc4ccccc4)cc3oc-2c(C)c(=O)c1C`
RESULT: 7.60

QUERY: Similarly, `COCCOCCOCCOCCNC(=O)c1ccc2nc3c(C)c(C)c(=O)c(C)c-3oc2c1` ?
RESULT: 7.77

QUERY: Cool, now `COc1ccc2nc3c(OC)c(OC)c(=O)c(C)c-3oc2c1`
RESULT: 7.92

QUERY: Same thing, different compound: `Cc1ccc2nc3c(C)c(C)c(=O)c(C)c-3oc2c1`
RESULT: 8.30

QUERY: Record: `Cc1cc2oc3c(C)c(=O)c(C)c(C)c-3nc2cc1S(C)(=O)=O`
RESULT: 6.63
